Conditions: in n-butanol, 283.15 K
Recorded endpoint: solubility (mole fraction)
Answer with a bare number; do not write a unit.

// field: solubility (mole fraction); key: COc1cc2c(cc1OC)C(=O)CC2 ; value = 0.0118

---

Conditions: in n-pentanol, 323.15 K
Recorded endpoint: solubility (mole fraction)

// field: solubility (mole fraction); key: COc1cc2c(cc1OC)C(=O)CC2 ; value = 0.104

---

Conditions: in 2-butanone, 298.15 K
Recorded endpoint: solubility (mole fraction)
Answer with a bare number; do not write a unit.

// field: solubility (mole fraction); key: COc1cc2c(cc1OC)C(=O)CC2 ; value = 0.0891
